experimental-target: Thioesterase GrsT homolog tycF (Brevibacillus brevis)
Sequence (whole entry): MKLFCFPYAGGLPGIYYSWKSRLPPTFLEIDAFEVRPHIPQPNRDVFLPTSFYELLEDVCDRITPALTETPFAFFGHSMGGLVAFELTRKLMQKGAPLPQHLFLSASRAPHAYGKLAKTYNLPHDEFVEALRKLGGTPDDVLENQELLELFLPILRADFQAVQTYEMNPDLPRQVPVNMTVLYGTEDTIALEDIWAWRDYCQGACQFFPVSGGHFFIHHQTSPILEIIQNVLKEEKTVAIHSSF
method-notes: Catalytic efficiency (Kcat/Km) was determined
Set-up: unit not given here
Ratio by entry:
// return a plain number; no unit text

Worked set:
INSERT INTO measurements (compound, readout_kind, recorded_measurement) VALUES
  ('CC[C@@H](C)[C@H](NC(=O)[C@H](CC(N)=O)NC(=O)[C@@H](Cc1ccccc1)NC(=O)[C@H](Cc1ccccc1)NC(=O)[C@@H]1CCCN1C(=O)[C@H](N)Cc1ccccc1)C(=O)N[C@@H](Cc1ccc(O)cc1)C(=O)N[C@H](C(=O)N[C@@H](CCCN)C(=O)N[C@@H](CC(C)C)C(=O)SCCNC(C)=O)C(C)C', 'Ratio', 0.09),
  ('CC(=O)NCCSC(=O)[C@H](CC(C)C)NC(=O)[C@H](CCCN)NC(=O)[C@@H](NC(=O)[C@H](Cc1ccc(O)cc1)NC(=O)[C@H](CCC(N)=O)NC(=O)[C@H](CC(N)=O)NC(=O)[C@H](CO)NC(=O)[C@H](Cc1ccccc1)NC(=O)[C@@H]1CCCN1C(=O)[C@H](N)Cc1ccccc1)C(C)C', 'Ratio', 0.57);

Now consider a different compound.
Sure, the documented Ratio for CC(=O)NCCSC(=O)[C@H](CC(C)C)NC(=O)[C@H](CCCN)NC(=O)[C@@H](NC(=O)[C@H](Cc1ccc(O)cc1)NC(=O)[C@H](CCC(N)=O)NC(=O)[C@H](CC(N)=O)NC(=O)[C@@H](Cc1ccccc1)NC(=O)[C@H](Cc1ccccc1)NC(=O)[C@@H]1CCCN1C(=O)[C@H](N)Cc1ccccc1)C(C)C (stereo in doubt; form 2) is 2.65
